Reference source for all entries: ChEMBL document CHEMBL1138845

tested on: MT4; test: Inhibitory concentration against wild type human immunodeficiency virus type 1 was determined by MT-4 assay; assay type: functional, cell-based
Would you kindly list log10 IC50 for each of these molecules?
Response schema: value (number) is log10 of IC50 in units of nM.

# Structure, Observed result
records = [
    ("CCCc1c(OC2CCCCC2)c2cc(Cl)ccc2[nH]c1=O", 1.76),
]

Lab note: each molecule below needs its log10 IC50 filled in.
1. CCCc1c(O)nc2ccc(F)cc2c1OCC1CCC1
2. CCCc1c(O)nc2ccc(OC(F)(F)F)cc2c1OC1CCCC1

[1.84, 2.58]

Lab note: each molecule below needs its log10 IC50 filled in.
1. CCCc1c(O)nc2ccc(Cl)cc2c1OC#CC1CC1
2. CCCc1c(O)nc2ccc(Br)cc2c1OC1CCCC1
3. CCCc1c(O)nc2ccc(F)cc2c1OC1CCCC1
4. CCCc1c(O)nc2ccc(F)cc2c1OC#CC1CC1
5. CCCc1c(O)nc2ccc(C)cc2c1OC1CCCC1

[2.04, 2.08, 2.18, 1.86, 2.99]

* * *

test system: HeLa; experiment: Inhibitory concentration against human immunodeficiency virus type 1 (with K103N resistant mutation) was determined in HeLa-CD4 MAGI assay; type: functional, cell-based
Endpoint label: IC50

Worked examples follow.
# Structure, Target of assay, IC50
measured = [
    ("CC(C)c1c(O)nc2ccc(Cl)cc2c1OCC1CCC1", "HeLa", "0.56 µM"),
    ("CCCc1c(O)nc2ccc(F)cc2c1OCC1CCC1", "HeLa", "1.8 µM"),
    ("CCCc1c(O)nc2ccc(C#N)cc2c1OC1CCCC1", "HeLa", "> 2 µM"),
    ("CCCc1c(O)nc2ccc(Br)cc2c1OC1CCCC1", "HeLa", "> 2 µM"),
    ("CCCc1c(O)nc2ccc(F)cc2c1OC1CCCC1", "HeLa", "> 2 µM"),
    ("CCCc1c(OC2CCCCC2)c2cc(Cl)ccc2[nH]c1=O", "HeLa", "> 2 µM"),
    ("CC(C)c1c(OC#CC2CC2)c2cc(F)ccc2[nH]c1=O", "HeLa", "0.4 µM"),
    ("CCCc1c(O)nc2ccc(Cl)cc2c1OC1CCC1", "HeLa", "> 2 µM"),
]

Lab note: each compound below needs its IC50 filled in.
1. CCCc1c(O)nc2ccccc2c1OC1CCCC1
2. CC(C)c1c(O)nc2ccc(Cl)cc2c1OC#CC1CC1
3. CCc1c(O)nc2ccc(Cl)cc2c1OC1CCCC1
4. CCCc1c(O)nc2cc(OC)ccc2c1OCC1CCC1
5. CCCc1c(O)nc2ccc(Cl)cc2c1OCC1CCC1

1. > 2 µM
2. 0.32 µM
3. > 2 µM
4. > 2 µM
5. 0.98 µM

* * *

Would you kindly list IC50 for each of these compounds?
test system: Human immunodeficiency virus 1; assay: Inhibitory concentration against wild type human immunodeficiency virus type 1 was determined by recombinant virus assay; assay type: functional, organism-based
Answers are plain numbers, in nM.

Worked examples follow.
# Compound, Endpoint label, Observed result
records = [
    ("CCC(C)C#COc1c(C(C)C)c(O)nc2ccc(F)cc12 (stereo unspecified)", "IC50", 28),
    ("CCCc1c(O)nc2ccc(C#N)cc2c1OC1CCCC1", "IC50", 65),
    ("CCCc1c(O)nc2ccc(Br)cc2c1OC1CCCC1", "IC50", 49),
    ("CCc1c(O)nc2ccc(Cl)cc2c1OC1CCCC1", "IC50", 72),
    ("CCCc1c(O)nc2ccccc2c1OC1CCCC1", "IC50", 350),
]

Lab note: each compound below needs its IC50 filled in.
1. CCC(C)c1c(O)nc2ccc(Cl)cc2c1OC1CCCC1 (stereo unspecified)
2. CCCc1c(OC2CCCCC2)c2cc(Cl)ccc2[nH]c1=O
3. CCCc1c(O)nc2ccc(OC(F)(F)F)cc2c1OC1CCCC1

[9.3, 32, 270]

Lab note: each compound below needs its IC50 filled in.
1. CCCc1c(O)nc2ccc(F)cc2c1OCC1CCC1
2. CCCc1c(O)nc2ccc(Cl)cc2c1OC#CC1CC1

1: 63; 2: 38

Lab note: each compound below needs its IC50 filled in.
1. CCc1c(O)nc2ccc(F)cc2c1OCC1CCC1
2. CCCc1c(O)nc2ccc(Cl)cc2c1OCC1CC1
3. Cc1c(O)nc2ccc(F)cc2c1OCC1CCC1
4. CCCc1c(O)nc2ccc(F)cc2c1OC1CCCC1
5. CCCc1c(O)nc2ccc(C)cc2c1OC1CCCC1
6. CC(C)c1c(OC2CCCCC2)c2cc(Cl)ccc2[nH]c1=O
7. CCCc1c(O)nc2ccc(F)c([N+](=O)[O-])c2c1OCC1CCC1
8. CC(C)Nc1cccnc1N1CCN(C(=O)c2cc3cc(NS(C)(=O)=O)ccc3[nH]2)CC1

89
120
610
150
400
38
1100
159

* * *

system: MT4; assay: Inhibitory concentration against wild type human immunodeficiency virus type 1 was determined by MT-4 assay; assay type: functional, cell-based
pIC50: −log10 of the molar value.
Response key: condition met means pIC50 >= 7; condition not met means pIC50 < 7.

# Compound, Assigned category
rows = [
    ("CCCc1c(O)nc2ccc(OC)cc2c1OC1CCCC1", "condition not met"),
    ("CCOc1c(O)nc2ccc(Cl)cc2c1OCC1CCC1", "condition not met"),
    ("CC(C)c1c(O)nc2ccc(F)cc2c1OCC1CCC1", "condition met"),
    ("N#Cc1c(O)nc2ccccc2c1OCC1CCC1", "condition not met"),
    ("CCc1c(O)nc2ccc(F)cc2c1OC#CC1CC1", "condition met"),
    ("CCCc1c(O)nc2ccc(F)c([N+](=O)[O-])c2c1OCC1CCC1", "condition not met"),
]

Check if pIC50 >= 7 (inclusive). Item: `CC(C)c1c(O)nc2ccc(Cl)cc2c1OCC1CCC1`
condition met

Check if pIC50 >= 7 (inclusive). Item: `CC(C)Cc1c(O)nc2ccc(Cl)cc2c1OC1CCCC1`
condition met

Check if pIC50 >= 7 (inclusive). Item: `Cc1c(O)nc2ccc(F)cc2c1OCC1CCC1`
condition not met

Check if pIC50 >= 7 (inclusive). Item: `CCCc1c(O)nc2ccc(Cl)cc2c1OCC1CC1`
condition not met

Check if pIC50 >= 7 (inclusive). Item: CCC(C)C#COc1c(C(C)C)c(O)nc2ccc(F)cc12 (configuration not stated)
condition met

* * *

tested on: HeLa; experiment: Inhibitory concentration against human immunodeficiency virus type 1 (with K103N resistant mutation) was determined in HeLa-CD4 MAGI assay; type: functional, cell-based
Endpoint label: pIC50
One number for each entry, as −log10 of the molar value.

# Compound, Target of assay, Endpoint label, Observed result
records = [
    ("CCc1c(O)nc2ccc(F)cc2c1OC#CC1CC1", "HeLa", "pIC50", 6.38),
    ("CCC(C)c1c(O)nc2ccc(Cl)cc2c1OC1CCCC1 (centres undefined)", "HeLa", "pIC50", 6.01),
]

Recall and state the measured pIC50 for `CC(C)c1c(OC2CCCCC2)c2cc(Cl)ccc2[nH]c1=O` .
6.77

* * *

system: HeLa; assay: Inhibitory concentration against human immunodeficiency virus type 1 (with K103N resistant mutation) was determined in HeLa-CD4 MAGI assay; type: functional, cell-based
pIC50: −log10 of the molar value.
Would you kindly list pIC50 for each of these compounds?

Worked examples follow.
# Structure, pIC50
data = [
    ("CCCc1c(O)nc2ccc(F)cc2c1OC#CC1CC1", "< 5.70"),
    ("CCc1c(O)nc2ccc(F)cc2c1OCC1CCC1", 6.57),
    ("CCCc1c(O)nc2ccc(Cl)cc2c1OC1CCCC1", "< 5.70"),
    ("CCCc1c(O)nc2ccc(OC)cc2c1OC1CCCC1", "< 5.70"),
    ("CC(C)Nc1cccnc1N1CCN(C(=O)c2cc3cc(NS(C)(=O)=O)ccc3[nH]2)CC1", 5.58),
    ("CC(C)c1c(O)nc2ccc(F)cc2c1OCC1CCC1", 5.77),
    ("CCCc1c(O)nc2ccc(C)cc2c1OC1CCCC1", "< 5.70"),
    ("CCOc1c(O)nc2ccc(Cl)cc2c1OCC1CCC1", "< 5.70"),
    ("CCCc1c(O)nc2ccc(F)c([N+](=O)[O-])c2c1OCC1CCC1", "< 5.70"),
    ("CCCc1c(O)nc2ccc(Cl)cc2c1OCC1CC1", "< 5.70"),
]

Lab note: each compound below needs its pIC50 filled in.
1. N#Cc1c(O)nc2ccccc2c1OCC1CCC1
2. CC(C)Cc1c(O)nc2ccc(Cl)cc2c1OC1CCCC1

1. < 5.70
2. < 5.70
